Tested on: HepG2
Test: GSK_TCMDC: Percent inhibition of human HepG2 cell line. Test compounds present at 10uM.
Assay type: functional
Inhibition: recorded values
Lab book: enter the figure in %, no units written.

Would you please look over these solved cases?
[[record]]
molecule = "COc1cc2ccccc2c(OC)c1CCNCCCCNCCc1c(OC)cc2ccccc2c1OC.CS(=O)(=O)O"
numeric_readout = 100

[[record]]
molecule = "Cl.Cn1ncc2c3c(CCN4CCC(NCc5cc6c(cn5)OCC6)CC4)c(Cl)cnc3ccc21"
numeric_readout = 4

[[record]]
molecule = "Cc1cc(Nc2cccc(C(F)(F)F)c2)nc(NCc2ccccc2)n1"
numeric_readout = 17

[[record]]
molecule = "c1cncc(Oc2ccc(Nc3ccnc4cc(-c5cccc(CNCCN6CCOCC6)c5)ccc34)cc2)c1"
numeric_readout = 14

[[record]]
molecule = "CCn1cc(C=C2Oc3c(ccc(O)c3CN3CCCCC3C)C2=O)c2ccccc21 (centres undefined)"
numeric_readout = 0


# input Report measured Inhibition on HepG2; entry: CC(=O)c1ccc(O)c(CC(O)CO)c1 (centres undefined)
# output 3

# input Report measured Inhibition on HepG2; entry: Cc1ccc2nc(-c3ccc(C(=O)NCc4ccc(Cl)c(Cl)c4)cc3)[nH]c2c1C
# output 19

# input Report measured Inhibition on HepG2; entry: CS(=O)(=O)NCCCNCc1ccc(-c2ccc(-c3nc4cc(F)ccc4[nH]3)cc2)cc1.O=C(O)C(F)(F)F
# output 17

# input Report measured Inhibition on HepG2; entry: COc1ccccc1CCNc1nc(C)cc(N[C@@H](CC(C)C)C(=O)NCc2cccc(F)c2)n1.O=C(O)C(F)(F)F
# output 20

----------
System: HepG2
Assay: GSK_TCMDC: Percent inhibition of human HepG2 cell line. Test compounds present at 10uM.
Assay type: functional
Mark class 1 for reported Inhibition of 20% or greater; mark class 0 for anything smaller.

[[record]]
molecule = "O=C(c1cccc(-c2cccc(-c3nc4ccccc4[nH]3)c2)c1)N1CCCCC1CN1CCC(O)C1 (stereo unspecified)"
assigned_label = "class 1"


From here, focus on the item given below.
# input Check the entry Cl.O=C(NCCCCN1CCC(c2ccc3c(c2OCCCO)CCCC3)CC1)c1ccc(-c2ccc(C(F)(F)F)cc2)c(CO)c1 : does Inhibition equal or exceed 20%?
# output class 1

----------
Test system: Plasmodium falciparum
Experiment: GSK_TCMDC: Inhibition of Plasmodium falciparum Dd2 in whole red blood cells, using parasite LDH activity as an index of growth. Test compounds present at 2uM
Assay type: functional
READOUT: Inhibition (%)
Lab book: enter the figure in %, no units written.

[[record]]
compound = "N#Cc1ccc(N2CCN(Cc3ccc(-c4ccc(-c5nc6cc(F)ccc6[nH]5)s4)cc3)CC2)nc1.O=C(O)C(F)(F)F"
assay_target = "Plasmodium falciparum"
quantity_unit = "%"
numeric_readout = 78

[[record]]
compound = "Cc1cccc(C)c1CNc1cccc(-c2nc(C)c(C)[nH]2)c1.Cl"
assay_target = "Plasmodium falciparum"
quantity_unit = "%"
numeric_readout = 44

[[record]]
compound = "O=C(Nc1cccc(-c2nn3ncccc3c2-c2ccnc(Nc3cccc(C(F)(F)F)c3)n2)c1)c1c(F)cccc1F"
assay_target = "Plasmodium falciparum"
quantity_unit = "%"
numeric_readout = 68


# input Report measured Inhibition on Plasmodium falciparum; entry: Cc1cccc2nc(-c3cccc(-c4ccc(NC(=O)COC(C)C)cc4)c3)[nH]c12
# output 11

# input Report measured Inhibition on Plasmodium falciparum; entry: CNc1c2c(nc3ccc(NC(=O)CCCCCCc4ccccc4)cc13)CCCC2.Cl
# output 82

# input Report measured Inhibition on Plasmodium falciparum; entry: O=C(Cc1ccc(NC(=O)c2ccc(O)c(-c3ccc(Cl)c(Cl)c3)c2)cc1)NCCN1CCCCC1
# output 63

# input Report measured Inhibition on Plasmodium falciparum; entry: COc1ccc(-c2nonc2NC(=O)c2cccc(C)c2)cc1OC
# output 8

# input Report measured Inhibition on Plasmodium falciparum; entry: Cc1nc(Nc2ccc(F)cc2)nc(N2CCc3ccccc3C2C)c1CO (centres undefined)
# output 95

# input Report measured Inhibition on Plasmodium falciparum; entry: O=C(n1c(-c2cc3ccccc3n2C(=O)C(F)(F)F)cc2ccccc21)C(F)(F)F
# output 80
